Tested on: HIV-1 LAI envelope single-round infectious reporter virus
method: Single-round infectious HIV-1 LAI luciferase reporter virus infection of MT2 cells
Assay type: cell-based
test.parameters: Human immunodeficiency virus 1, MT2, 72 h, read-out: EC50 Group from Table 1
Known EC50 of a selection of compounds

{"columns": ["molecule.smiles", "EC50"],
 "data": [
  ["O=C(C(=O)N1CCN(C2=Nc3ccccc3Oc3ccc(Cl)cc32)CC1)c1c[nH]c2c(Br)ccc(F)c12", "> 500 nM"],
  ["COc1cnc(-n2cncn2)c2[nH]cc(C(=O)C(=O)N3CCN(C4=Nc5ccccc5Oc5ccc(Cl)cc54)CC3)c12", "< 500 nM"],
  ["O=C(C(=O)N1CCN(C2=Nc3ccccc3Oc3ccc(Cl)cc32)CC1)c1c[nH]c2ccccc12", "> 500 nM"],
  ["O=C(C(=O)N1CCN(C2=Nc3cc(Cl)ccc3Nc3ccccc32)CC1)c1c[nH]c2ccccc12", "> 500 nM"],
  ["COc1cnc(-n2cnc(C)n2)c2[nH]cc(C(=O)C(=O)N3CCN(C4=Nc5ccccc5Oc5ccc(Cl)cc54)CC3)c12", "< 500 nM"],
  ["COc1cnc(-n2cnc(C)n2)c2[nH]cc(C(=O)C(=O)N3CCN(C4=Nc5cc(Cl)ccc5Nc5ccccc54)CC3)c12", "< 500 nM"]
]}
